FYI, the data here is from patent US20230159510A1.

Tested on: HCT116 MTAP null cells
ASSAY OVERVIEW: HCT116 proliferation assay, MTAP null cells (CellTiter-Glo, 6 days)
Assay type: cell-based
MEASUREMENT CONDITIONS: HCT116-MTAP null, 144 h, read-out: Protif_ HCT116-MTAP null IC50
RECORDED METRIC: IC50 (nM)

COc1ccc(CN(C[C@H](OC)C(F)(F)F)C(=O)c2ccc3nc(N)c(C)cc3c2)nn1 (single isomer, unassigned) [Example 774]    139
Cc1cc2c(C)c(C(=O)N(Cc3ccc(C(F)(F)F)cn3)[C@H](C)c3ncccn3)ccc2nc1N [Example 770]    132
